The measured values listed here are drawn from a melting point compilation (Tetko et al.; mined from patent text by program, amines drawn as free bases though some values may be those of a salt).

The entries below come with measured melting point values attached.
quantity: melting point

Nc1cnc(NCCSCc2csc(CN3CCCCC3)c2)[nH]c1=O
150 to 155 °C
Nc1ccc(Oc2ccc(C(=O)O)c(O)c2)cc1
187 to 188 °C
COc1ccccc1NC(=NC#N)NC(NC(=O)c1ccc(Cl)cc1)C(C)(Cl)Cl (stereo not given)
185 to 186 °C
CC(C)(C)c1cc(-c2c(C(=O)O)c(=O)oc3cc4c(cc23)CCC4)cc(C(C)(C)C)c1O
256 to 260 °C
Cn1c(C(F)(F)F)cc(=O)n(-c2ccc3snc(C(C)(C)C(N)=O)c3c2)c1=O
192 to 196 °C
N/C(=C1/Sc2ccccc2C1=O)c1ccccc1N
186 to 187 °C
COc1ccc(S(=O)(=O)N(COCC[Si](C)(C)C)c2ccccc2I)cc1
69 to 70 °C
Cc1oc(-c2ccccc2)nc1CC=Cc1ccc(CC2OC(=O)NC2=O)cc1 (stereo not given)
168 to 169 °C
C=CCc1cc(Cc2cnc(N)nc2N)c2cccnc2c1OCCOC
196 to 200 °C
COc1cccc(C=O)c1OS(=O)(=O)C(F)(F)F
29.5 to 31.5 °C
N#Cc1ccc(CCCCC2CC(c3cccnc3)=CC(=O)O2)cc1 (stereo not given)
110 to 112 °C
O=S(=O)(CC(F)(F)F)NC(c1ccc(Cl)c2nc3n(c12)CCCN3c1c(Cl)cc(Cl)cc1Cl)C(F)(F)F (stereo not given)
237 to 239 °C
CCOC(=O)c1ccc(NC(=O)C=C(c2ccc(F)cc2)c2ccc(F)cc2)cc1
161 to 163 °C
O=C(O)c1ccc(OC(F)(F)F)c(OC2CCCC2)c1
116 to 118 °C
CC(C)c1nc(CCOC2=CCC(C(C)(C)C)CC2)n(C)c1Sc1cc(Cl)cc(Cl)c1 (stereo not given)
99.5 to 100 °C
CCCCCCCCCCc1csc2c1S(=O)(=O)c1c(CCCCCCCCCC)csc1-2
58.7 to 60.3 °C
O=C(C1CCN(c2ccncn2)CC1)N1CCN(S(=O)(=O)c2ccc3cc(Cl)ccc3c2)CC1
218 to 219 °C
CN1CC(C#CC2CC2)(C(F)(F)F)c2cc(Cl)ccc2NC1=O (stereo not given)
177 to 178 °C
CC(=O)c1cc(OCC2CO2)ccc1OCc1ccccc1 (stereo not given)
45 to 48 °C
NNC(=O)Cc1cccc(Cl)n1
220 to 225 °C
